- Test system: MDA-MB-435 melanoma
- method_notes: NCI-60 one-dose screen, 48 h (100 = growth as untreated, 0 = no growth, -100 = all killed)
- conditions: 10 µM unless noted
The panel holds about 83,000 compounds, 20% with a hit somewhere; the sample as a whole holds those more often.
property_measured: growth (%)
Output spec: scalar in %, unitless text.

// sample Cc1cc2c(C(C)C)c(O)c(O)c(C=NCCCCCCC(=O)O)c2c(O)c1-c1c(C)cc2c(C(C)C)c(O)c(O)c(C=NCCCCCCC(=O)O)c2c1O , its growth was 27.2

Entry Cc1ccc(S(=O)(=O)NCCCNc2nccc(-c3c(-c4ccccc4)nc4sccn34)n2)cc1 , growth reported as 34

growth measured on COc1ccc(C2NC3=C(CCCC3)C(C#N)(C#N)C2(C#N)C#N)cc1 (stereo unspecified) = 103

Value of growth reported for the compound COc1ccc2c(c1)NC(=O)CN2c1nc(NC2CC2)nc2ccccc12 is -36

The value of growth measured for the compound c1ccc2c(c1)Oc1ccccc1C2C1c2ccccc2Oc2ccccc21 turned out to be 99.4

Value of growth reported for the compound COc1ccc(/C=C2\Oc3cc(OCCN4CCCC4)ccc3C2=O)c(OC)c1 is 94.3

// growth lookup, compound = O=C(CN1CCN(c2cc3c(cc2F)c(=O)c(C(=O)O)cn3C2CC2)CC1)Nc1ccc(C(=O)/C=C/c2ccccc2)cc1 , result: 19.2

Sample O=C(O)c1cn(C2CC2)c2cc(N3CCN(S(=O)(=O)c4ccc(Cl)c(Cl)c4)CC3)c(F)cc2c1=O ; growth observed: 13

Memo: COc1ccc(Cn2c(SC)nc(=O)n(Cc3ccc(Cl)cc3)c2=O)cc1 , reported growth: 111

The measured growth associated with Clc1ccc([I+]c2ccc(Cl)cc2Cl)c(Cl)c1 reads 82.2

Value of growth reported for the compound O=P([O-])(O)OP(=O)([O-])O.[NH-][C@H]1CCCC[C@@H]1[NH-].[OH-].[OH-].[Pt+4] is 99.3
